Below: a set of entries, each annotated with reported GI50.
Tested on: A498
Assay: NCI tumour cell line growth inhibition, 48 h
Calls of active or inactive are those of the source. Rule as the data show it: active = GI50 up to about 1.1 µM and inactive = higher. Starred links: 1 amine or outer side, 2 acyl side, 3 side chain; linkers in the order of their positions; H or OH if unused. Positions of bridges follow the written chain, without caps; N, C: chain ends. Non-standard residues stand in square brackets, D forms with d. Residues, ends and D or L forms follow the SMILES beside them. Chains are numbered I, II in the order given. Actinocin(1to9) = Cc1c2oc3c(C)ccc(C(=O)[*:2])c3nc-2c(C(=O)[*:1])c(N)c1=O; aThr = C[C@H](O)[C@H](N)C(=O)O; NMeV = CN[C@H](C(=O)O)C(C)C; Sar = CNCC(=O)O
RECORDED METRIC: GI50

* CCCCN1C(=O)c2c(-c3sccc3N)sc(-c3sccc3N)c2C1=O | 23.4 µM (inactive)
* Cc1nc(=O)[nH]c2s/c(=N/C3CCCCC3)n(C3CCCCC3)c(=O)c12 | > 100 µM (inactive)
* CCOP(=O)(OCC)C(Nc1cccc(F)c1)c1ccc(N(C)C)cc1 (configuration not stated) | > 100 µM (inactive)
* Cc1c2oc3c(C)ccc(C(=O)N[C@@H]4C(=O)N[C@H](C(C)C)C(=O)N5CCC[C@H]5C(=O)N(C)CC(=O)N(C)[C@@H](C(C)C)C(=O)O[C@H]4C)c3nc-2c(C(=O)N[C@@H]2C(=O)N[C@H](C(C)C)C(=O)N3CCC[C@H]3C(=O)N(C)CC(=O)N(C)[C@@H](C(C)C)C(=O)O[C@H]2C)c(N)c1=O (I: [aThr][dV]P[Sar][NMeV] / II: [aThr][dV]P[Sar][NMeV]; ester I:1-I:C, II:1-II:C; linker I:N-II:N via Actinocin(1to9)) | 0.00299 µM (active)
* NC(=O)c1cn(C2OC(CO)C(O)C2O)c2ncnc(N)c12 (configuration not stated) | 0.0724 µM (active)
* O=C(O)c1ccc(NC(NC(=O)C(C(F)(F)F)C(F)(F)F)(C(F)(F)F)C(F)(F)F)cc1 | > 100 µM (inactive)
* COc1ccc(C(=O)CC(=O)C(=O)Nc2ccc(C)c(C)c2)cc1 | > 100 µM (inactive)
* CCCCCCCc1c(Cl)nc(Cl)nc1Cl | 20.1 µM (inactive)
* COC(=O)C(C)(/N=C/c1ccccc1)c1ccccc1 (configuration not stated) | > 100 µM (inactive)
* Cc1ccc2c(c1C)CC1(Cc3c(C)ccc(C)c3C1=O)C2=O (configuration not stated) | > 100 µM (inactive)
* CSc1ccc2c(cc1=O)[C@@H](NC(=O)c1ccc([N+](=O)[O-])cc1)CCc1cc(O)c(O)c(O)c1-2 | > 100 µM (inactive)
* COc1ccc2c(c1)-c1nc(=S)n(CCCN(C)C)c3ccc([N+](=O)[O-])c(c13)N2 | 4.09 µM (inactive)
* COc1ccc(C=O)cc1OS(=O)(=O)C(F)(F)C(F)(F)C(F)(F)C(F)(F)F | 3.72 µM (inactive)
* COC(=O)C1=C(C(=O)NNc2ccccc2)N(c2cccnc2Cl)C(c2ccccc2)=CC1c1ccccc1 (configuration not stated) | > 100 µM (inactive)
* CC(C)(Oc1ccc(/C=C/C(=O)c2ccccc2)cc1)C(=O)Nc1c(Cl)cccc1Cl | 0.524 µM (active)
* CCOC(=O)c1cc(C2=CCNC2=O)c(-c2cc(C)no2)[nH]1 | > 100 µM (inactive)
* O=[N+]([O-])c1cccc(C2N3CCCCC3[C@@H]3c4[nH]c5ccccc5c4CCN23)c1 (some centres not stated) | 15 µM (inactive)
